Tested on: Pseudomonas aeruginosa UI-18: Wild-type (PA-7)
assay_comment: MIC determination (CLSI), PA-7
Assay type: cell-based
conditions_used: Pseudomonas aeruginosa; Table 3; read-out: PA-7 MIC
readout: MIC

Consider the worked cases shown below.
Request: For Cc1ccc(F)c(-c2noc(COc3ccc(CCC(C)(C(=O)NO)S(C)(=O)=O)cc3)n2)c1 (stereo not drawn) [Example 291] , what is its reported MIC?
Result: ≥ 64 µg/mL

Request: For CC(CCc1ccc(OCc2ccccc2F)cc1)(C(=O)NO)S(C)(=O)=O (stereo not drawn) [Example 242] , what is its reported MIC?
Result: ≥ 64 µg/mL

# ---- query molecule ----
Request: For Cc1cccc(Cc2noc(COc3ccc(CCC(C)(C(=O)NO)S(C)(=O)=O)cc3)n2)c1 (stereo not drawn) [Example 289] , what is its reported MIC?
Result: ≥ 64 µg/mL
